# Tested on: L-428 (Hodgkin's Lymphoma);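 note: after 72 h of two-drug dosing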
# assay_info: Bliss excess, mean over the matrix (fraction); higher = more synergy
Decision: Bliss excess >= 0.01 yields Condition met, all other cases yield Condition not met.

Consider the following illustrative entries.
molecule	tgt	label
CC1(C)CCC(CN2CCN(c3ccc(C(=O)NS(=O)(=O)c4ccc(NCC5CCOCC5)c([N+](=O)[O-])c4)c(Oc4cnc5[nH]ccc5c4)c3)CC2)=C(c2ccc(Cl)cc2)C1 [Venetoclax] + COc1cc(Nc2ncc3c(n2)-c2ccc(Cl)cc2C(c2c(F)cccc2OC)=NC3)ccc1C(=O)O [Alisertib] (first compound max 1 µM, 7x7, partner max 10 µM)	L-428 (Hodgkin's Lymphoma)	Condition met
Cc1c2c(nn1C)CSCc1cc(n(C)n1)CSc1cc(c3ccccc3c1)OCCCc1c(C(=O)O)n(C)c3c-2c(Cl)ccc13 [AZD5991] + Cc1cc2ncnn2cc1Nc1ncc2c(n1)n(C1CCOCC1)c(=O)n2C [AZD7648] (first compound max 1 µM, 7x7, partner max 10 µM)	L-428 (Hodgkin's Lymphoma)	Condition met

Record COc1nnc2ccc(N3CCC(c4ccc(OCCN5CCN(C)C(=O)[C@H]5C)cc4)CC3)nn12 [AZD5153] + CN(CC[C@H](CSC1=CC=CC=C1)NC2=C(C=C(C=C2)S(=O)(=O)NC(=O)C3=CC=C(C=C3)N4CCC(CC4)[C@H](C5=CC=CC=C5C6=CC=C(C=C6)Cl)O)S(=O)(=O)C(F)(F)F)CCO [AZD4320] (first compound max 1 µM, 7x7, partner max 1 µM) ; criterion: Bliss excess no lower than 0.01. Met?
Condition not met

Likewise for COc1cccc(OCCCN)c1-c1cc(Nc2cnc(C#N)cn2)n[nH]1 [Prexasertib] + Cc1cc2ncnn2cc1Nc1ncc2c(n1)n(C1CCOCC1)c(=O)n2C [AZD7648] (first compound max 1 µM, 7x7, partner max 10 µM) ?
Condition not met

Likewise for CCN(CCO)CCCOc1ccc2c(Nc3cc(CC(=O)Nc4cccc(F)c4)[nH]n3)ncnc2c1 [AZD2811] + C=CCn1c(=O)c2cnc(Nc3ccc(N4CCN(C)CC4)cc3)nc2n1-c1cccc(C(C)(C)O)n1 [AZD1775] (first compound max 1 µM, partner max 1 µM) ?
Condition met

Likewise for Cc1c2c(nn1C)CSCc1cc(n(C)n1)CSc1cc(c3ccccc3c1)OCCCc1c(C(=O)O)n(C)c3c-2c(Cl)ccc13 [AZD5991] + C=CCn1c(=O)c2cnc(Nc3ccc(N4CCN(C)CC4)cc3)nc2n1-c1cccc(C(C)(C)O)n1 [AZD1775] (first compound max 1 µM, partner max 1 µM) ?
Condition met

* * *

# System: BE-13 (T-Lymphoblastic Leukemia)
# assay_info: combination Emax (second highest fraction inhibited in the dose matrix, 72 h); higher = more inhibition; extreme values may be limits of the assay
outcome_measure: combination Emax

Study these solved cases before continuing.
compound	combination Emax
NC1(C(=O)N[C@@H](CCO)c2ccc(Cl)cc2)CCN(c2ncnc3[nH]ccc23)CC1 [Capivasertib] + COc1nnc2ccc(N3CCC(c4ccc(OCCN5CCN(C)C(=O)[C@H]5C)cc4)CC3)nn12 [AZD5153] (first compound max 10 µM, 7x7, partner max 1 µM)	0.644
COc1cccc(OCCCN)c1-c1cc(Nc2cnc(C#N)cn2)n[nH]1 [Prexasertib] + Cc1cc2ncnn2cc1Nc1ncc2c(n1)n(C1CCOCC1)c(=O)n2C [AZD7648] (first compound max 1 µM, 7x7, partner max 10 µM)	0.952
CN(CCO)CC[C@H](CSc1ccccc1)Nc1ccc(S(=O)(=O)NC(=O)c2ccc(N3CCC([C@@H](O)c4ccccc4-c4ccc(Cl)cc4)CC3)cc2)cc1S(=O)(=O)C(F)(F)F [AZD4320] + C[C@@H](Nc1cc(F)cc(F)c1)c1cc(C(=O)N(C)C)cc2c(=O)cc(N3CCOCC3)oc12 [AZD8186] (first compound max 1 µM, 7x7, partner max 3 µM)	1
CC(=O)c1c(C)c2cnc(Nc3ccc(N4CCNCC4)cn3)nc2n(C2CCCC2)c1=O [Palbociclib] + Cc1c2c(nn1C)CSCc1cc(n(C)n1)CSc1cc(c3ccccc3c1)OCCCc1c(C(=O)O)n(C)c3c-2c(Cl)ccc13 [AZD5991] (first compound max 10 µM, 7x7, partner max 1 µM)	0.815
NC1(C(=O)N[C@@H](CCO)c2ccc(Cl)cc2)CCN(c2ncnc3[nH]ccc23)CC1 [Capivasertib] + CC(C)n1c(=O)n(C)c2cnc3cc(F)c(-c4ccc(OCCCN5CCCCC5)nc4)cc3c21 [AZD1390] (first compound max 10 µM, 7x7, partner max 0.3 µM)	0.296
COc1nnc2ccc(N3CCC(c4ccc(OCCN5CCN(C)C(=O)[C@H]5C)cc4)CC3)nn12 [AZD5153] + CCN(CCO)CCCOc1ccc2c(Nc3cc(CC(=O)Nc4cccc(F)c4)[nH]n3)ncnc2c1 [AZD2811] (first compound max 1 µM, 7x7, partner max 1 µM)	0.92

# combination Emax lookup, item C=CCn1c(=O)c2cnc(Nc3ccc(N4CCN(C)CC4)cc3)nc2n1-c1cccc(C(C)(C)O)n1 [AZD1775] + C[C@@H]1COCCN1C2=NC(=NC(=C2)C3(CC3)[S@](=N)(=O)C)C4=C5C=CNC5=NC=C4 [AZD6738] (first compound max 1 µM, partner max 10 µM)
1
